# METHOD: Aqueous (kinetic) solubility, shake-flask, phosphate buffer pH 7.4
# Format: physicochemical
# REPORTED CONDITIONS: 23 °C, kinetic from dmso stock, phosphate buffer pH 7.4, 16 hours at room temperature
solubility kinetic at 16 h values by entry
METRIC: solubility kinetic at 16 h (µg/mL)

{"columns": ["COMPOUND", "UNITS OF MEASURE", "NUMERIC READOUT"],
 "data": [
  ["Cc1cc(NC2CCCCC2)nc(-n2nc(C)cc2C)n1 [Comparator A, reference compound]", "µg/mL", 17],
  ["Cc1csc(-c2nc(NC3CCC(F)(F)CC3)cc([C@H](C)O)n2)n1 (single isomer, unassigned)", "µg/mL", 80.3],
  ["COc1cc(NC2CCC(F)(F)CC2)nc(-c2nc(C)cs2)n1", "µg/mL", 70.9],
  ["Cc1ccn(-c2nc(NC3CCC(F)(F)CC3)cc(N3CCOCC3)n2)n1", "µg/mL", 74]
]}

###

# TARGET SYSTEM: hERG (Homo sapiens)
# Construct: host or cells: HEK-293
# Sequence (Q12809 whole entry): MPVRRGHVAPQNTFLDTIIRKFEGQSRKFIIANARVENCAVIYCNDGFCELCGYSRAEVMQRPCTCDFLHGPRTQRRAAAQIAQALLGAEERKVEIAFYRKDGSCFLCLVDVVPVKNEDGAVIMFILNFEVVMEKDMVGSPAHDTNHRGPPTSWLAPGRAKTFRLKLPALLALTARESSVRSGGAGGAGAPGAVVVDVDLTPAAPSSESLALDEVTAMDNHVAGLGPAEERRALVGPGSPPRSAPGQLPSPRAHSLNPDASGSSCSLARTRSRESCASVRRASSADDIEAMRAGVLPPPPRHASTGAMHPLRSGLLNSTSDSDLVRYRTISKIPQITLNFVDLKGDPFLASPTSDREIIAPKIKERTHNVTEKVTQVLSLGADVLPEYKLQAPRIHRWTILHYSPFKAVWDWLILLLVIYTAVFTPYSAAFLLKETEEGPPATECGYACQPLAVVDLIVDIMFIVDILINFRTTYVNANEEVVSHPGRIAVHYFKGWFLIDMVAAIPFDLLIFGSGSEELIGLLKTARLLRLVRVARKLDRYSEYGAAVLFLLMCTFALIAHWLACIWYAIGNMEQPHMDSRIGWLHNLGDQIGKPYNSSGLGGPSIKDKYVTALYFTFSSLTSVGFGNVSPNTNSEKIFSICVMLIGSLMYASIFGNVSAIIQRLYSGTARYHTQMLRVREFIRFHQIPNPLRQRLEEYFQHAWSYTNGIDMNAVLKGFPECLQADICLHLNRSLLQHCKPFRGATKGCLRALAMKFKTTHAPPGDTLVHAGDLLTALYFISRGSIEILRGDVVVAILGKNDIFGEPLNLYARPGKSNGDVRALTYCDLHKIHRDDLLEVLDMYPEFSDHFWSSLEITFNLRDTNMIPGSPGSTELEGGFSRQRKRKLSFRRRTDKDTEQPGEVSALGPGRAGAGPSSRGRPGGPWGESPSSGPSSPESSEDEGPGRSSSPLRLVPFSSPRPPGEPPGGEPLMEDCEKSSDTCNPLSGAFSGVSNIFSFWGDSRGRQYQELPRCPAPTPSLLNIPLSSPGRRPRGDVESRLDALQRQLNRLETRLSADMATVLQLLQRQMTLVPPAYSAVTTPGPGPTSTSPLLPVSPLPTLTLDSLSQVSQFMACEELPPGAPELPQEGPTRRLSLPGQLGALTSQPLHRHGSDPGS
# METHOD: Cardiac potassium channel hERG assay, whole-cell patch clamp in HEK-293 cells
# Assay type: cell-based
# REPORTED CONDITIONS: HEK-293 cells stably transfected with hERG; read-out: hERG inhibition (IC50)
METRIC: IC50

{"columns": ["COMPOUND", "RESULT"],
 "data": [
  ["Cc1cc(NC2CCCCC2)nc(-n2nc(C)cc2C)n1 [Comparator A, reference compound]", "> 10 µM"],
  ["Cc1ccn(-c2nc(NC3CCC(F)(F)CC3)cc(N3CCOCC3)n2)n1 [Compound 1]", "> 10 µM"]
]}

###

# METHOD: Brain free fraction by equilibrium dialysis in rat brain tissue homogenate
# Format: in vitro ADME
# REPORTED CONDITIONS: 10% rat brain tissue homogenate, Tables 2 and 3
Measured fraction unbound at 5 h, 1 uM, listed per entry for reference.

{"columns": ["COMPOUND", "fraction unbound at 5 h, 1 uM"],
 "data": [
  ["Cc1csc(-c2nc(NC3CCC(F)(F)CC3)cc([C@H](C)O)n2)n1 (single isomer, unassigned) [Compound 5]", 0.042],
  ["COc1cc(NC2CCC(F)(F)CC2)nc(-n2nc(C)cc2C)n1 [Compound 2]", 0.0276],
  ["Cc1cc(C)n(-c2nc(Nc3ccc(Cl)cc3)cc(N3CCOCC3)n2)n1 [Comparator C, reference compound]", 0.0016],
  ["Cc1ccn(-c2nc(NC3CCC(F)(F)CC3)cc(N3CCOCC3)n2)n1 [Compound 1]", 0.061]
]}

###

# METHOD: Brain concentration by LC-MS from brains harvested after tremor recording
# Format: in vivo
# REPORTED CONDITIONS: Sprague Dawley, rat, oral, 30 mg/Kg, brains harvested immediately following tremor recording, minimally efficacious dose, read-out: Measured Brain Concentration
METRIC: concentration at 90 min

{"columns": ["COMPOUND", "RESULT"],
 "data": [
  ["Cc1ccn(-c2nc(NC3CCC(F)(F)CC3)cc(N3CCOCC3)n2)n1 [Compound 1]", "1300 nM"]
]}

###

This listing pairs compounds with measured solubility kinetic at 16 h.
# METHOD: Aqueous (kinetic) solubility, shake-flask, phosphate buffer pH 7.4
# Format: physicochemical
# REPORTED CONDITIONS: 23 °C, kinetic from dmso stock, phosphate buffer pH 7.4, 16 hours at room temperature
METRIC: solubility kinetic at 16 h (µg/mL)

{"columns": ["COMPOUND", "METRIC", "NUMERIC READOUT"],
 "data": [
  ["FC1(F)CCC(Nc2cc(N3CCOCC3)nc(-n3ccc(C4CC4)n3)n2)CC1 [Compound 7]", "solubility kinetic at 16 h", 49.7],
  ["Cc1cc(C)n(-c2nc(Nc3ccc(Cl)cc3)cc(N3CCOCC3)n2)n1 [Comparator C, reference compound]", "solubility kinetic at 16 h", 1],
  ["COc1cc(NC2CCC(F)(F)CC2)nc(-n2nc(C)cc2C)n1 [Compound 2]", "solubility kinetic at 16 h", 31],
  ["Cc1csc(-c2nc(NC3CCC(F)(F)CC3)cc([C@@H](C)O)n2)n1 (single isomer, unassigned) [Compound 6]", "solubility kinetic at 16 h", 66.7]
]}

###

Test system CYP2D6 (Homo sapiens), IC50 listed for each of the molecules.
METRIC: IC50

{"columns": ["MOLECULE", "METRIC", "RESULT"],
 "data": [
  ["Cc1ccn(-c2nc(NC3CCC(F)(F)CC3)cc(N3CCOCC3)n2)n1 [Compound 1]", "IC50", "> 10 µM"],
  ["Cc1cc(NC2CCCCC2)nc(-n2nc(C)cc2C)n1 [Comparator A, reference compound]", "IC50", "0.79 µM"]
]}

###

Values of IC50 reported for CYP3A4 (Homo sapiens, UniProt P08684) appear below.

{"columns": ["MOLECULE", "TARGET SYSTEM", "IC50"],
 "data": [
  ["Cc1ccn(-c2nc(NC3CCC(F)(F)CC3)cc(N3CCOCC3)n2)n1", "CYP3A4 (Homo sapiens, UniProt P08684)", "> 10 µM"],
  ["Cc1cc(NC2CCCCC2)nc(-n2nc(C)cc2C)n1 [Comparator A, reference compound]", "CYP3A4 (Homo sapiens, UniProt P08684)", "> 10 µM"]
]}

###

# METHOD: Brain concentration by LC-MS from brains harvested after tremor recording
# Type: in vivo
# REPORTED CONDITIONS: Sprague Dawley, rat, oral, 30 mg/Kg, CFB=CMB×BFF, read-out: Calculated Free Brain Concentration

{"columns": ["COMPOUND", "UNITS OF MEASURE", "concentration at 90 min"],
 "data": [
  ["Cc1ccn(-c2nc(NC3CCC(F)(F)CC3)cc(N3CCOCC3)n2)n1 [Compound 1]", "nM", 80]
]}

###

# METHOD: Brain free fraction by equilibrium dialysis in rat brain tissue homogenate
# Format: in vitro ADME
# REPORTED CONDITIONS: 10% rat brain tissue homogenate, Tables 2 and 3
# Procedure: The extent to which compounds modulate SK2 channels in vivo is expressed as % SK2 SC100, which is the ratio of the concentration of the drug free in the brain to the measured potency of the compound on the SK2 channel. It is calculated as follows: CFB=CMB×BFF, where CMB is the concentration of compound measured by liquid chromatography mass spectrometry from brains harvested immediately following tremor recording (Table 1, “Measured Brain Concentration”). […]
# fraction unbound at 5 h, 1 uM annotations

{"columns": ["MOLECULE", "fraction unbound at 5 h, 1 uM"],
 "data": [
  ["FC1(F)CCC(Nc2cc(N3CCOCC3)nc(-n3ccc(C4CC4)n3)n2)CC1", 0.0155],
  ["Cc1cc(NC2CCCCC2)nc(-n2nc(C)cc2C)n1 [Comparator A, reference compound]", 0.012],
  ["COc1cc(NC2CCC(F)(F)CC2)nc(-c2nc(C)cs2)n1", 0.0269],
  ["Cc1csc(-c2nc(NC3CCC(F)(F)CC3)cc([C@@H](C)O)n2)n1 (single isomer, unassigned)", 0.0431]
]}

Data origin, for the record: patent US10351553B2
